Answer each item with its documented Activity/1 mM Sec.
System: Dami cells
Test: Screening of efficacious peptides: cytotoxicity-inhibitory activity (Example 3)
Format: cell-based
Details: cytotoxicity-inhibitory activity per 1 mM selenocysteine
Non-standard residues stand in square brackets, D forms with d. No end group written: not given here. Sec = N[C@@H](C[SeH])C(=O)O

Leu Ile Pro Thr Glu Ala Ser Ala Ser Xaa Arg (LIPTEASAS[Sec]R; listed as Human plasma) [Peptide 11]    28,000
Lys Asn Gln Ala Lys Lys Xaa Glu (KNQAKK[Sec]E; listed as Human plasma) [Peptide 12]    24,000
Arg Ser Xaa Ser Cys His Cys Arg His Leu Ile Phe Glu Lys (RS[Sec]SCHCRHLIFEK; cysteine pairing not given here; listed as Human plasma) [Peptide 4]    24,000

For every item below, please supply its Activity/1 mM Sec.
1. Arg Ser Xaa Ser Ser His Cys Arg His Leu Ile Phe Glu Lys (RS[Sec]SSHCRHLIFEK; listed as Human plasma) [Peptide 5]
2. Thr Gly Ser Ala Ile Thr Xaa Gln Ser Lys (TGSAIT[Sec]QSK; listed as Human plasma) [Peptide 8]
3. KRCINQLLCKLPTDSELAPRS (cysteine pairing not given here) [Peptide 1]

### Response
["16,000", "79,000", 0]

For every item below, please supply its Activity/1 mM Sec.
1. Ala Glu Glu Asn Ile Thr Glu Ser Ser Gln Xaa Arg (AEENITESSQ[Sec]R; listed as Human plasma) [Peptide 10]
2. Arg Ser Xaa Cys Cys His Cys Arg His Leu Ile Phe Glu Lys (RS[Sec]CCHCRHLIFEK; cysteine pairing not given here; listed as Human plasma) [Peptide 3]
3. Lys Glu Phe Ile Leu His Arg Ser His Ser Ser Xaa Ser Arg (KEFILHRSHSS[Sec]SR; listed as Human plasma) [Peptide 14]
4. RSSCCHCRHLIFEK (cysteine pairing not given here) [Peptide 2]
5. Glu Asn Leu Pro Ser Leu Ser Ser Xaa Gln Gly Leu Arg (ENLPSLSS[Sec]QGLR; listed as Human plasma) [Peptide 9]

### Response
6,000
95,000
95,000
0
24,000
